# measurement-target: T1, mPD-1-his (mouse, UniProt Q02242 25-167, limits assumed)
# T1 construct: domain: IgV domain
# T1 sequence: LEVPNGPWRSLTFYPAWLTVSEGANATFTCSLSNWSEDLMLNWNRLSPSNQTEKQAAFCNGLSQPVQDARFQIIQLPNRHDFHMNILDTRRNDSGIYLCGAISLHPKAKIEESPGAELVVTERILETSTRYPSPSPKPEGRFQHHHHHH
# procedure-text: SPR Biacore, mPD1-his
property-label: Kd (nM)
The response must be a number in nM with no trailing unit.

For m3A7 (antibody, V domains shown, R3A9 derivative; also called 7115C) VH: QVQLVQSGAEVKKPGASVKVSCKASGHTFTSYYIHWVRQAPGQGLEWMGIINPSGGSTSYAQKFQGRVTMTRDTSTSTVYMELSSLRSEDTAVYYCARDRAYGGAGDYWGQGTLVTVSS VL: DIQMTQSPSSLSASVGDRVTITCRASRSISNWLAWYQQKPGKAPKLLIYAASSLQSGVPSRFSGSGSGTDFTLTISSLQPEDFATYYCQQSYSAPVTFGQGTKVEIK , write its Kd. 3.03
